- targetEntity: KRAS G13C (Homo sapiens, UniProt P01116+P62937, G13C)
- Sequence (P01116 1-169 isoform P01116-2 G13C): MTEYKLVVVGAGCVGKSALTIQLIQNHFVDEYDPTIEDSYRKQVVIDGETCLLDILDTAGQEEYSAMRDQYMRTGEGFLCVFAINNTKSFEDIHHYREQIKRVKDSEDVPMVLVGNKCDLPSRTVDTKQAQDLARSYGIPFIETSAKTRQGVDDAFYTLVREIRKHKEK
- Sequence (P62937 whole entry): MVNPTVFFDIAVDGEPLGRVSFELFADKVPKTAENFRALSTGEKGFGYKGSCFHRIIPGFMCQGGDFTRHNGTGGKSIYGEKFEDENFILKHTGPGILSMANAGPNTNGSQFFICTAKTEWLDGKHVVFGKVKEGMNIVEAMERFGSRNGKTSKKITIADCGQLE
- experimentalDetails: Disruption of BRAF RBD interaction with Ras (FRET / MOA assay, with Cyclophilin A)
- Type: biochemical
- runConditions: KRAS G13C; read-out: KRAS G13C FRET data IC50
pIC50: −log10 of the molar value.
measurementType: pIC50

So what does the record say about pIC50 for CCn1c(-c2cccnc2[C@H](C)OC)c2c3cc(ccc31)-c1cccc(c1)C[C@H](NC(=O)[C@H](C(C)C)N(C)C(=O)[C@@H]1CCN(C(=O)C#CC(C)(C)N3CCC3)C1)C(=O)N1CCC[C@H](N1)C(=O)OCC(C)(C)C2 [Example A476] ?
6.00 to 7.00

Hi, could you look up pIC50 for each item in my list?
1. C=CC(=O)N1CC[C@H](C(=O)N(C)[C@H](C(=O)N[C@H]2Cc3cc(O)cc(c3)-c3ccc4c(c3)c(c(-c3cccnc3)n4CC)CC(C)(C)COC(=O)[C@@H]3CCCN(N3)C2=O)C(C)C)C1 [Example A045]
2. CCn1c(-c2cncnc2)c2c3cc(ccc31)-c1cc(O)cc(c1)C[C@H](NC(=O)[C@H](C(C)C)N(C)C(=O)[C@H]1CCN(C(=O)C#CCN(C)C)C1)C(=O)N1CCC[C@H](N1)C(=O)OCC(C)(C)C2 [Example A108]
3. C=CC(=O)N1CC[C@]2(C1)OCN(C(=O)N(C)[C@H](C(=O)N[C@H]1Cc3cccc(n3)-c3ccc4c(c3)c(c(-c3cccnc3[C@H](C)OC)n4CC)CC(C)(C)COC(=O)[C@@H]3CCCN(N3)C1=O)C(C)C)C2=O (atropisomer, axis not shown) [Example A652]
4. C=CC(=O)N1CC[C@H](C(=O)N(C)[C@H](C(=O)N[C@H]2Cc3cc(O)cc(c3)-c3ccc4c(c3)c(c(-c3ccc(CN5CCCC5)cc3)n4CC)CC(C)(C)COC(=O)[C@@H]3CCCN(N3)C2=O)C(C)C)C1 [Example A010]
5. C=CC(=O)N1CC[C@H](C(=O)N(C)[C@H](C(=O)N[C@H]2Cc3cc(O)cc(c3)-c3ccc4c(c3)c(c(-c3c(CCOC)cccc3OC)n4CC)CC(C)(C)COC(=O)[C@@H]3CCCN(N3)C2=O)C(C)C)C1 [Example A080]
6. CCn1c(-c2cccnc2[C@H](C)OC)c2c3cc(ccc31)-c1cccc(c1)C[C@H](NC(=O)[C@H](C(C)C)N(C)C(=O)[C@H]1CCN(C(=O)C#CC3CC(F)(F)CN3C)C1)C(=O)N1CCC[C@H](N1)C(=O)OCC(C)(C)C2 (some centres unmarked) [Example A526]
7. C=CC(=O)N1CCOC2(CCN(C(=O)N(C)[C@H](C(=O)N[C@H]3CN4CCC=C(C4)c4ccc5c(c4)c(c(-c4cccnc4[C@H](C)OC)n5CC)CC(C)(C)COC(=O)[C@@H]4CCCN(N4)C3=O)C(C)C)CC2)C1 [Example A563]

["5.00 to 6.00", "7.00 to 8.00", "6.00 to 7.00", "5.00 to 6.00", "< 5.00", "5.00 to 6.00", "6.00 to 7.00"]
